Attribute: IC50
test.system: human PD-1 (Jurkat-PD-1 cells) / PE-labeled human PD-L1-Ig (Homo sapiens)
Construct: expressed in transfected cells; host or cells: Jurkat cell line over-expressing human PD-1
Sequence (Q15116 25-288): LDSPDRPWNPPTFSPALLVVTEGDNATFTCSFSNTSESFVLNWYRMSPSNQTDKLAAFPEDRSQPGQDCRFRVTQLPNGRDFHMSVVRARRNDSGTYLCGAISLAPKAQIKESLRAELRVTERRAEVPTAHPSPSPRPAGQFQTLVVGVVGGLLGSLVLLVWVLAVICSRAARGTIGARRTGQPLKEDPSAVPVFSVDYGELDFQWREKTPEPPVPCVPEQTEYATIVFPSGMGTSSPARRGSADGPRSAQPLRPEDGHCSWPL
assay.remarks: Jurkat-PD-1 Cell Binding High-Content Screening Assay (CBA); Jurkat hPD1-PDL1 assay
condition.description: Jurkat cell line over-expressing human PD-1; PE-labeled PD-L1-Ig 20 nM final; compound incubated 2 hours at 37° C.; read-out: Jurkat HPD1-PDL1 IC50
Positions of bridges follow the written chain, without caps; N, C: chain ends. Non-standard residues stand in square brackets, D forms with d. Residues, ends and D or L forms follow the SMILES beside them. Bip = N[C@@H](Cc1ccc(-c2ccccc2)cc1)C(=O)O; NMeF = CN[C@@H](Cc1ccccc1)C(=O)O; NMeA = CN[C@@H](C)C(=O)O
# number only, unit µM dropped from output

CC(C)C[C@@H]1NC(=O)[C@H](CCCNC(=N)N)NC(=O)[C@H](Cc2ccccc2)N(C)C(=O)[C@H](C)N(C)C(=O)[C@H](CCC(=O)O)NC(=O)[C@H](Cc2ccc(-c3ccccc3)cc2)NC(=O)[C@H](C(C)C)NC(=O)[C@H](Cc2c[nH]c3ccccc23)NC(=O)[C@H](CC(=O)O)NC(=O)[C@H](Cc2ccc(O)cc2)NC(=O)[C@H](Cc2cnc[nH]2)NC(=O)CSC[C@@H](C(=O)NCC(N)=O)NC(=O)[C@H](CO)NC(=O)[C@H](C(C)C)NC1=O [Example 1288] ({CH2CO}-HYDWV[Bip]E[NMeA][NMeF]RLVSCG-NH2; thioether N-14)	0.08

Next compound, please.
**Query** Name the recorded IC50 of the compound listed here: CC(C)C[C@@H]1NC(=O)[C@H](CCCNC(=N)N)NC(=O)[C@H](Cc2ccccc2)N(C)C(=O)[C@H](C)N(C)C(=O)[C@H](C)NC(=O)[C@H](Cc2ccc(-c3ccccc3)cc2)NC(=O)[C@H](C(C)C)NC(=O)[C@H](Cc2c[nH]c3ccccc23)NC(=O)[C@H](CC(=O)O)NC(=O)[C@H](Cc2ccc(O)cc2)NC(=O)[C@H](Cc2ccccc2)NC(=O)CSC[C@@H](C(=O)NCC(N)=O)NC(=O)[C@H](CO)NC(=O)[C@H](C(C)C)NC1=O [Example 1208] ({CH2CO}-FYDWV[Bip]A[NMeA][NMeF]RLVSCG-NH2; thioether N-14)
**Result** 0.82
